Each recorded value in this set is attributed to paper PMC5770965.

# TESTED_ON: KIX domain of CBP (UniProt P45481 586-665)
# Sequence (P45481 586-665): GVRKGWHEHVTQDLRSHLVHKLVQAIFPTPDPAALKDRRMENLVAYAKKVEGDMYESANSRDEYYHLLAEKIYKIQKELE
# METHOD_DESCRIPTION: stopped-flow fluorescence (association kinetics) + dissociation kinetics by competition; KdKin calculated as kdiss/kass,fast
# EXPERIMENTAL_CONDITIONS: both partners purified
Non-standard residues stand in square brackets, D forms with d. No end group written: not given here. *: point of attachment. FITC = O=C1OC2(c3ccc(O)cc3Oc3cc(O)ccc32)c2ccc(NC(=S)*)cc21; pS = N[C@@H](COP(=O)(O)O)C(=O)O
MEASUREMENT_LABEL: Kd (nM)
Dear colleague, please return just the value in nM, with no unit written.

BINDER: {FITC}-DSVTDAQKRREILSRRP[pS]YRKILNDLSSDAP (peptide, UniProt P15337-1 116-146, looked up, source: synthetic peptide, bought: Biomatik) [FITC-pKID S121A]
ENDPOINT_RESULT: 100
--
BINDER: {FITC}-DSVTDSQKAREILSRRP[pS]YRKILNDLSSDAP (peptide, UniProt P15337-1 116-146, looked up, source: synthetic peptide, bought: Biomatik) [FITC-pKID R124A]
ENDPOINT_RESULT: 60
--
BINDER: {FITC}-DSVTDSQKRREILSRRP[pS]YRKIANDLSSDAP (peptide, UniProt P15337-1 116-146, looked up, source: synthetic peptide, bought: Biomatik) [FITC-pKID L138A]
ENDPOINT_RESULT: 4730
--
BINDER: {FITC}-DSVTDSQKRREILSRRP[pS]YRKILNDLSSDAP (peptide, UniProt P15337-1 116-146, looked up, also called wtFITCpKID; source: synthetic peptide, bought: Biomatik) [FITC-pKID wild-type (CREB residues 116-146, phosphorylated at Ser133)]
ENDPOINT_RESULT: 110
--
BINDER: {FITC}-DSVTDSQKRREILSRRP[pS]YRKALNDLSSDAP (peptide, UniProt P15337-1 116-146, looked up, source: synthetic peptide, bought: Biomatik) [FITC-pKID I137A]
ENDPOINT_RESULT: 9730

Moving on to another binder below.
Asked: Could you tell me which Kd is on file for {FITC}-DSVTDSQKRREIASRRP[pS]YRKILNDLSSDAP (peptide, UniProt P15337-1 116-146, looked up, source: synthetic peptide, bought: Biomatik) [FITC-pKID L128A] ?
Given back: 2000
